# Test system: HeLa MKYP cells
# protocol-summary: Human mitophagy assay (HeLa mKeima assay, FACS)
# Assay type: cell-based
# study-conditions: Homo sapiens, HeLa; read-out: Mitophagy induction EC50
# Protocol: Briefly, HeLa MKYP cells were plated at 10,000 cells/well in 96 well plates along with compounds at various concentrations. Following 16 hrs of incubation, cells were treated with 1 uM FCCP/oligomycin for 6 hours, then analyzed via FACS for the presence of mitochondria in lysosomes (as determined by an emissions spectrum shift from the pH-sensitive mtKeima tag). […]
Would you mind sorting the entries by EC50 according to these classes? lower segment = under 100 nM, middle segment = from 100 nM up to 9000 nM, upper segment = 9000 nM and over

{"columns": ["compound", "category-label"],
 "data": [
  ["c1ccc2c(c1)OC[C@H](C1CCOCC1)[C@H]2Nc1ncnc2[nH]c(C3CC3)cc12 [EP-0040728]", "upper segment"],
  ["C[C@@H]1CN([C@H]2CCc3ccccc3[C@@H]2Nc2ncnc3[nH]c(C(F)(F)F)cc23)C[C@H](C)O1 (single isomer, unassigned) [EP-0040493]", "lower segment"],
  ["C[C@H]1CN([C@@H]2CCc3ccccc3[C@H]2Nc2ncnc3[nH]c(C(F)(F)F)cc23)CCO1 (single isomer, unassigned) [EP-0040504]", "upper segment"],
  ["C[C@H]1CN([C@H]2COc3cc(F)ccc3[C@@H]2Nc2ncnc3[nH]c(C(F)(F)F)cc23)CCO1 [EP-0040981]", "middle segment"],
  ["c1ccc2c(c1)CC[C@@H](C1CCOCC1)[C@@H]2Nc1ncnc2[nH]c(C3CC3)cc12 [EP-0040727]", "middle segment"],
  ["CC1(O)CN([C@@H]2COc3ccccc3[C@H]2Nc2ncnc3[nH]c(C(F)(F)F)cc23)C1 (single isomer, unassigned) [EP-0041264]", "upper segment"],
  ["COC1CN([C@@H]2COc3ccccc3[C@H]2Nc2ncnc3[nH]c(C(F)(F)F)cc23)C1 [EP-0040850]", "middle segment"],
  ["FC(F)OC1CN([C@H]2COc3ccccc3[C@@H]2Nc2ncnc3[nH]c(C(F)(F)F)cc23)C1 (single isomer, unassigned) [EP-0041541]", "middle segment"],
  ["C[C@@H]1CN([C@H]2COc3ccccc3[C@@H]2Nc2ncnc3[nH]c(C4CC4)cc23)CCO1 [EP-0040957]", "upper segment"],
  ["COC1CN([C@@H]2CCc3ccccc3[C@H]2Nc2ncnc3[nH]c(C(F)(F)F)cc23)C1 [EP-0040858]", "upper segment"],
  ["CC(C)OC1CN([C@H]2COc3ccccc3[C@@H]2Nc2ncnc3[nH]c(C(F)(F)F)cc23)C1 [EP-0041465]", "middle segment"],
  ["CN(c1ncnc2[nH]c(C3CC3)cc12)C1c2ccccc2CCC1N1C[C@H]2COC[C@H]2C1 (some centres unmarked) [EP-0039743]", "middle segment"],
  ["FC(F)(F)c1cc2c(N[C@H]3c4ccccc4CC[C@@H]3N3C[C@H]4COC[C@H]4C3)ncnc2[nH]1 (single isomer, unassigned) [EP-0038582]", "upper segment"],
  ["C[C@H]1CN([C@@H]2CCc3ccccc3[C@H]2Nc2ncnc3[nH]c(C4CC4)cc23)CCO1 (single isomer, unassigned) [EP-0040512]", "upper segment"],
  ["Fc1ccc2c(c1)OC[C@H](N1C[C@@H]3COC[C@H]3C1)[C@H]2Nc1ncnc2[nH]c(C(F)(F)F)cc12 (single isomer, unassigned) [EP-0040562]", "middle segment"],
  ["C[C@@H]1CN([C@@H]2COc3ccccc3[C@H]2Nc2ncnc3[nH]c(C4CC4)cc23)C[C@H](C)O1 [EP-0040945]", "lower segment"],
  ["C[C@@H]1CN([C@H]2CCc3ccccc3[C@@H]2Nc2ncnc3[nH]c(C4CC4)cc23)C[C@H](C)O1 (single isomer, unassigned) [EP-0040498]", "lower segment"],
  ["FC(F)(F)c1cc2c(N[C@@H]3c4ccccc4CC[C@H]3N3C[C@H]4COC[C@H]4C3)ncnc2[nH]1 (single isomer, unassigned) [EP-0038583]", "lower segment"],
  ["c1ccc2c(c1)CC[C@@H](N1CCOCC1)[C@@H]2Nc1ncnc2[nH]c(C3CC3)cc12 (single isomer, unassigned) [EP-0040109]", "upper segment"],
  ["FC(F)(F)c1cc2c(N[C@H]3c4ccccc4CC[C@@H]3C3CCOCC3)ncnc2[nH]1 (single isomer, unassigned) [EP-0040580]", "lower segment"],
  ["C[C@@H]1CN([C@@H]2COc3cc(F)ccc3[C@H]2Nc2ncnc3[nH]c(C(F)(F)F)cc23)C[C@H](C)O1 [EP-0040947]", "lower segment"],
  ["CO[C@H]1CCN([C@@H]2COc3ccccc3[C@H]2Nc2ncnc3[nH]c(C4CC4)cc23)C1 [EP-0041518]", "upper segment"],
  ["Fc1ccc2c(c1)OC[C@@H](N1CCOCC1)[C@@H]2Nc1ncnc2[nH]c(C3CC3)cc12 (single isomer, unassigned) [EP-0040501]", "upper segment"],
  ["O=C1COCCN1[C@H]1CCc2ccccc2[C@@H]1Nc1ncnc2[nH]c(C(F)(F)F)cc12 (single isomer, unassigned) [EP-0038378]", "upper segment"],
  ["Fc1ccc2c(c1)CC[C@@H](N1CCOCC1)[C@@H]2Nc1ncnc2[nH]c(C3CC3)cc12 [EP-0039747]", "upper segment"]
]}

Origin of values: patent US20240018146A1
